Catalogue of molecules with associated melting point

CC(C)(C)OC(=O)N[C@@H](C(=O)N1CCC[C@H]1C(=O)NC1CCc2n[nH]cc2C1)C(c1ccccc1)c1ccccc1 (stereo partly shown): 119 to 122 °C
Cl.Cl.Nc1ncc2c(n1)CCC(NC(=O)[C@@H]1CCCN1C(=O)[C@H](N)Cc1ccccc1)C2 (stereo partly shown): 205 to 208 °C
O=C(NC1CCc2c[nH]cc2C1)[C@@H]1CCCN1C(=O)[C@@H](CC1CCCCC1)NS(=O)(=O)Cc1ccccc1 (stereo partly shown): 106 to 109 °C

// query May I ask what melting point has been recorded for CC(C)(C)OC(=O)N[C@H](Cc1ccc(Cl)c(Cl)c1)C(=O)N1CCC[C@H]1C(=O)NCC1CCc2nc(N)ncc2C1 (stereo partly shown) ?
// result 110 to 113 °C

// query Please report the recorded melting point for Nc1nc2c(s1)CC(CNC(=O)[C@@H]1CCCN1C(=O)[C@@H](CC1CCCCC1)NS(=O)(=O)Cc1ccccc1)CC2 (stereo partly shown) .
// result 203 to 205 °C

// query Reported melting point for Nc1nc2c(s1)CC(NC(=O)[C@@H]1CCCN1C(=O)[C@@H](Cc1ccccc1)NS(=O)(=O)Cc1ccccc1)CC2 (stereo partly shown) : what is it?
// result 126 to 129 °C

// query Return reported melting point; argument: Cl.Cl.Nc1ncc2c(n1)CCC(CNC(=O)[C@@H]1CCCN1C(=O)[C@H](N)Cc1ccc(Cl)c(Cl)c1)C2 (stereo partly shown)
// result 169 to 172 °C

Values from patent US7112590B2
